Target: human orexin-2 (hOX2) receptor (Homo sapiens)
Construct: expressed in transfected cells
Sequence (O43614 1-444): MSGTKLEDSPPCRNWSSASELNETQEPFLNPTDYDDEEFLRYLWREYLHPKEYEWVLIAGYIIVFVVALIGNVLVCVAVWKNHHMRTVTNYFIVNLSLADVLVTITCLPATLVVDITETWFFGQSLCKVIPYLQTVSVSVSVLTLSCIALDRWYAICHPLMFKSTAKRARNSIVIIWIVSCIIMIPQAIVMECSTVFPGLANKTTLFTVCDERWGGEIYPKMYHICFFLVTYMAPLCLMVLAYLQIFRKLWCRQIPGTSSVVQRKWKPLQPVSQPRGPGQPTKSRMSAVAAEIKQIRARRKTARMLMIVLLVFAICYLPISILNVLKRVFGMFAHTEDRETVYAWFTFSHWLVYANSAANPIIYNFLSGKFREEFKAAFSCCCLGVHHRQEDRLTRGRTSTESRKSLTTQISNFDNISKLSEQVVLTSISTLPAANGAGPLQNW
Experiment: Intracellular Ca2+ mobilization assay (FLIPR), CHO(dHFr-) cells expressing hOX2, orexin-A at EC80 as agonist
Format: cell-based
Conditions: Kb=IC50/(1+[A]/EC50); CHO(dHFr-)-OX2R cells, antagonist applied 25 min before orexin-A EC80

compound	Kb / µM
Cc1ccc(CCN(C(=O)C(NCC2OCCO2)c2ccccc2)c2ccc(C)c(C)c2)cc1 (stereo not shown)	0.007
NC(C(=O)N(CCc1ccc(C(F)(F)F)cc1)c1cccc(OC(F)F)c1)c1ccccc1 (stereo not shown)	0.0509
COc1ccc(N(CCc2ccc(C(F)(F)F)cc2)C(=O)[C@@H](O)c2ccccc2)cc1OC	0.0226
Cc1ccc(N(CCc2c(F)cc(C(F)(F)F)c(F)c2F)C(=O)/C(=N/O)c2ccccc2)cc1C	0.0222

---

In this section we review reported Kb values for a set of compounds.
Target: human orexin-2 (hOX2) receptor (Homo sapiens, UniProt O43614)
Construct: expressed in transfected cells
Experiment: Intracellular Ca2+ mobilization assay (FLIPR), CHO(dHFr-) cells expressing hOX2, orexin-A at EC80 as agonist
Format: cell-based
Conditions: Kb=IC50/(1+[A]/EC50); CHO(dHFr-)-OX2R cells, antagonist applied 25 min before orexin-A EC80
Protocol: Intracellular Ca^2+ Mobilization Assay […] Kb values were calculated according to the following equation Kb=IC50/(1+[A]/EC50) where A is the concentration of agonist added which is very close to agonist EC80 value, and IC50 and EC50 values were derived from the antagonist inhibition and orexin-A or B agonist curves, respectively.
Counter-ions that a name gives are not always drawn.

compound	Kb [µM]
COc1cccc(N(CCc2ccc(C(F)(F)F)cc2)C(=O)[C@@H](N)c2ccc(F)cc2)c1 [Example 160]	0.0291
NC(C(=O)N(CCc1ccc(C(F)(F)F)cc1)c1cccc(C2(O)COC2)c1)c1ccccc1 (stereo not shown) [Example 95]	0.0834
Cc1ccc(N(CCc2cccc(C(F)(F)F)c2F)C(=O)[C@@H](N)c2ccccc2)cc1C [Example 195, hydrochloride]	0.0176
COc1ccccc1CC(=O)N(CCc1ccc(C(F)(F)F)cc1)c1ccc(OC)c(OC)c1 [Example 14]	0.0342
COc1ccc(Cl)c(N(CCc2ccc(C(F)(F)F)cc2)C(=O)C(N)c2ccccc2)c1 (stereo not shown) [Example 110]	0.0335
COc1ccc(N(CCc2ccc(C(F)(F)F)cc2)C(=O)C(N)c2ccccc2)cc1F (stereo not shown) [Example 64]	0.0383
Cc1ccc(CCN(C(=O)[C@@H](NC(=O)[C@H](C)N)c2ccccc2)c2ccc(C)c(C)c2)cc1 [Example 251]	0.0102
COc1cccc(N(CCc2ccc(C(F)(F)F)cc2)C(=O)C(N)c2ccccc2OC)c1 (stereo not shown) [Example 38]	0.0577
CC(=O)NCCNC(C(=O)N(CCc1ccc(C)cc1)c1ccc(C)c(C)c1)c1ccccc1 (stereo not shown) [Example 126]	0.0086
Cc1ccc(N(CCc2ccc(C(F)(F)F)cc2F)C(=O)[C@@H](N)c2ccccc2)cc1C [Example 196, hydrochloride]	0.0171
Cc1ccc(CCN(C(=O)C(NCc2ccco2)c2ccccc2)c2ccc(C)c(C)c2)cc1 (stereo not shown) [Example 130]	0.0416
Cc1ccc(CCN(C(=O)C(NC(CO)C(C)C)c2ccccc2)c2ccc(C)c(C)c2)cc1 (stereo not shown) [Example 123]	0.0727
CCOCCNC(C(=O)N(CCc1ccc(C)cc1)c1ccc(C)c(C)c1)c1ccccc1 (stereo not shown) [Example 136]	0.0201
COc1ccc(N(CCc2ccc(C(F)(F)F)cc2)C(=O)[C@H](N)c2ccccc2)cc1OC (single isomer, unassigned) [Example 174]	0.046
COc1cc(N(CCc2ccc(C(F)(F)F)cc2)C(=O)[C@@H](N)c2ccccc2)ccc1C [Example 162]	0.0151
Cc1ccc(CCN(C(=O)C(N)c2ccccc2)c2ccc(C)c(C)c2)cc1 (stereo not shown) [Example 89]	0.0241
Cc1ccc(N(CCc2cccc(F)c2F)C(=O)[C@@H](N)c2ccccc2)cc1C [Example 191, hydrochloride]	0.0215
Cc1ccc(N(CCc2cc(C(F)(F)F)ccc2F)C(=O)[C@@H](N)c2ccccc2)cc1C [Example 193, hydrochloride]	0.016
Cc1ccc(N(CCc2cccc(Cl)c2F)C(=O)[C@@H](N)c2ccccc2)cc1C [Example 204, hydrochloride]	0.0178
COc1ccc(N(CCc2ccc(C(F)(F)F)cc2)C(=O)C(N)c2ccccc2OC)cc1OC (stereo not shown) [Example 35]	0.0088
Cc1ccc(N(CCc2ccc(F)cc2)C(=O)[C@@H](N)c2ccccc2)cc1C [Example 175]	0.0219
NC(C(=O)N(CCc1ccc(C(F)(F)F)cc1)c1ccc2c(c1)CCCC2)c1ccccc1 (stereo not shown) [Example 137]	0.0364
COc1ccc(C(O)C(=O)N(CCc2ccc(C(F)(F)F)cc2)c2ccc(OC)c(OC)c2)cc1O (stereo not shown) [Example 27]	0.0737
Cc1ccc(N(CCc2ccc(C(F)(F)F)cc2)C(=O)[C@@H](N)c2ccccc2)cc1 [Example 146]	0.0335
CNC(C(=O)N(CCc1ccc(C(F)(F)F)cc1)c1ccc(OC)c(OC)c1)c1ccccc1 (stereo not shown) [Example 53]	0.0305
NC(C(=O)N(CCc1ccc(C(F)(F)F)cc1)c1ccc(OC(F)F)cc1)c1ccccc1 (stereo not shown) [Example 105]	0.0414
N[C@H](C(=O)N(CCc1ccc(C(F)(F)F)cc1)c1ccc2c(c1)CCCC2)c1ccccc1 [Example 150]	0.0682
COc1ccccc1C(N)C(=O)N(CCc1ccc(C(F)(F)F)cc1)c1ccc2c(c1)OC(F)(F)C(F)(F)O2 (stereo not shown) [Example 44]	0.0069
Cc1ccc(CCN(C(=O)[C@@H](NC(=O)CN)c2ccccc2)c2ccc(C)c(C)c2)cc1 [Example 248]	0.0353
Cc1ccc(N(CCc2ccc(C(F)(F)F)cc2)C(=O)Cn2c(C)nc3ccccc32)cc1C [Example 236]	0.076
Cc1ccc(N(CCc2ccc(F)c(F)c2)C(=O)C(N)c2ccc(Cl)s2)cc1C (stereo not shown) [Example 214, hydrochloride]	0.0966

---

Target: human orexin-2 (hOX2) receptor (Homo sapiens, UniProt O43614)
Construct: expressed in transfected cells
Test: Intracellular Ca2+ mobilization assay (FLIPR), CHO(dHFr-) cells expressing hOX2, orexin-A at EC80 as agonist
Type: cell-based
Conditions: Kb=IC50/(1+[A]/EC50); CHO(dHFr-)-OX2R cells, antagonist applied 25 min before orexin-A EC80
Method: Intracellular Ca^2+ Mobilization Assay […] Kb values were calculated according to the following equation Kb=IC50/(1+[A]/EC50) where A is the concentration of agonist added which is very close to agonist EC80 value, and IC50 and EC50 values were derived from the antagonist inhibition and orexin-A or B agonist curves, respectively.
Where a name gives a salt, the structure may show the parent alone.

compound	Kb [µM]
Cc1ccc(N(CCc2cccc(F)c2)C(=O)[C@@H](N)c2ccccc2)cc1C [Example 182, hydrochloride]	0.0283
Cc1ccc(N(CCc2ccc(C(F)(F)F)cc2)C(=O)[C@@H](N)c2ccccc2)cc1C	0.0364
Cc1ccc(N(CCc2ccc(OC(F)(F)F)cc2)C(=O)[C@@H](N)c2ccccc2)cc1C	0.0505
Cc1ccc(N(CCc2ccc(F)c(F)c2)C(=O)[C@@H](N)c2ccccc2)cc1C [Example 189, hydrochloride]	0.0071

---

Biological target: human orexin-2 (hOX2) receptor (Homo sapiens, UniProt O43614)
Construct: expressed in transfected cells
Sequence (O43614 1-444): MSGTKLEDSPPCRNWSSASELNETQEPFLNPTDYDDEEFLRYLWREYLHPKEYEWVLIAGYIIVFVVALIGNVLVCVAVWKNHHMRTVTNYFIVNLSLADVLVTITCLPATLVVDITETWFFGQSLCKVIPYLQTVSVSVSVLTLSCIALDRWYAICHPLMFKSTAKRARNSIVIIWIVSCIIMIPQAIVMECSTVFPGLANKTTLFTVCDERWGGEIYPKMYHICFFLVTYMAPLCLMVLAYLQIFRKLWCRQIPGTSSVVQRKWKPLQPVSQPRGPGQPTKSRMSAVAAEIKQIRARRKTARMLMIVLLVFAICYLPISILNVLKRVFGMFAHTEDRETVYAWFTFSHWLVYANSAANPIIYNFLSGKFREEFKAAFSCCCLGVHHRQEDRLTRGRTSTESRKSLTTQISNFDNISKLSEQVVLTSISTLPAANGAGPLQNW
Assay: Intracellular Ca2+ mobilization assay (FLIPR), CHO(dHFr-) cells expressing hOX2, orexin-A at EC80 as agonist
Assay type: cell-based
Conditions: Kb=IC50/(1+[A]/EC50); CHO(dHFr-)-OX2R cells, antagonist applied 25 min before orexin-A EC80
Structures can show the parent of a compound that is named as a salt.
In this section we review reported Kb values for a set of molecules.
recorded_endpoint: Kb (µM)

molecule	target_system	unit_spec	recorded_result
COc1ccccc1C(N)C(=O)N(CCc1ccc(C(F)(F)F)cc1)c1ccc2c(c1)OCO2 (centres unmarked) [Example 41]	human orexin-2 (hOX2) receptor (Homo sapiens, UniProt O43614)	µM	0.0505
Cc1ccc(N(CCc2ccc(Cl)cc2F)C(=O)[C@@H](N)c2ccccc2)cc1C [Example 192, hydrochloride]	human orexin-2 (hOX2) receptor (Homo sapiens, UniProt O43614)	µM	0.0148
COCC(C)NC(C(=O)N(CCc1ccc(C)cc1)c1ccc(C)c(C)c1)c1ccccc1 (centres unmarked) [Example 120]	human orexin-2 (hOX2) receptor (Homo sapiens, UniProt O43614)	µM	0.0446
Cc1ccc(N(CCc2ccc(C(F)(F)F)cc2)C(=O)C(N)c2ccccc2)cc1 (centres unmarked) [Example 69]	human orexin-2 (hOX2) receptor (Homo sapiens, UniProt O43614)	µM	0.0828
Cc1ccc(N(CCc2ccc(F)c(F)c2)C(=O)C(N)c2ccsc2)cc1C (centres unmarked) [Example 216, hydrochloride]	human orexin-2 (hOX2) receptor (Homo sapiens, UniProt O43614)	µM	0.0302
Cc1ccc(N(CCc2ccc(C)c(F)c2)C(=O)[C@@H](N)c2ccccc2)cc1C [Example 190, hydrochloride]	human orexin-2 (hOX2) receptor (Homo sapiens, UniProt O43614)	µM	0.0091
CNC(C(=O)N(CCc1ccc(C(F)(F)F)cc1)c1ccc(OC)c(OC)c1)c1ccccc1OC (centres unmarked) [Example 34]	human orexin-2 (hOX2) receptor (Homo sapiens, UniProt O43614)	µM	0.027
COc1cc(N(CCc2ccc(C(F)(F)F)cc2)C(=O)C(N)c2ccccc2)ccc1Cl (centres unmarked) [Example 65]	human orexin-2 (hOX2) receptor (Homo sapiens, UniProt O43614)	µM	0.0285
